Answer each item with its documented Activity.
- target or system: UniProtKB P34972
- Sequence (P34972 whole entry): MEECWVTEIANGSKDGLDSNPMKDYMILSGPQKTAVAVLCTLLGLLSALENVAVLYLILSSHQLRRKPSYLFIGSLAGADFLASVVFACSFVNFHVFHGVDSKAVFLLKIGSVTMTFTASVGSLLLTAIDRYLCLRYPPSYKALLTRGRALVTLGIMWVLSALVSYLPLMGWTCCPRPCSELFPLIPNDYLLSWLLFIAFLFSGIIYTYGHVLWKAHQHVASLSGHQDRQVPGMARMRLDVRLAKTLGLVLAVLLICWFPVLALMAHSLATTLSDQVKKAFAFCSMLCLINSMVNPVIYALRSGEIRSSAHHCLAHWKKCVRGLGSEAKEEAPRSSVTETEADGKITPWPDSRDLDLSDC
- method description: Inverse agonist activity at human CB2 receptor expressed in CHO cell membrane assessed as increase in forskolin-stimulated cAMP production at 1 uM by scintillation counting analysis relative to WIN55212-2
Answer format: numeric, % implied, no suffix.

Input line: Any idea what Activity was measured for CCCCCn1cc(C(=O)NC23CC4CC(CC(C4)C2)C3)c(=O)n2nc(C)c(-c3ccc(OC)cc3)c12 ?
Output line: 36

Input line: Any idea what Activity was measured for CCCCCn1cc(C(=O)NC2CCCCCC2)c(=O)n2nc(-c3ccccc3C)cc12 ?
Output line: 107

Input line: Any idea what Activity was measured for CCCCCn1cc(C(=O)NC23CC4CC(CC(C4)C2)C3)c(=O)n2nc(-c3ccc(Cl)cc3)cc12 ?
Output line: 144

Input line: Any idea what Activity was measured for CCCCCn1cc(C(=O)NC23CC4CC(CC(C4)C2)C3)c(=O)n2nc(C)c(-c3ccccc3)c12 ?
Output line: 34

Input line: Any idea what Activity was measured for CCCCCn1cc(C(=O)NC23CC4CC(CC(C4)C2)C3)c(=O)n2nc(-c3ccco3)cc12 ?
Output line: 107

Input line: Any idea what Activity was measured for CCCCCn1cc(C(=O)NC2CCCCCC2)c(=O)n2nc(-c3ccco3)cc12 ?
Output line: 42

Input line: Any idea what Activity was measured for CCCCCn1cc(C(=O)NC2CCCCCC2)c(=O)n2nc(-c3ccccc3)cc12 ?
Output line: 103

Input line: Any idea what Activity was measured for CCCCCn1cc(C(=O)NC2CCC(C)CC2)c(=O)n2nc(C)cc12 (centres undefined) ?
Output line: 48

Input line: Any idea what Activity was measured for CCCCCn1cc(C(=O)NC2CCCCCC2)c(=O)n2nc(-c3ccc(Cl)cc3)cc12 ?
Output line: 121
